Molecular target: Nuclear receptor subfamily 1 group I member 3 (Homo sapiens)
Experiment: qHTS assay to identify small molecule agonists of the constitutive androstane receptor (CAR) signaling pathway (AID 1224839); also: nearly all actives have a fitted effect of over 15% in size;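 as to activation: HepG2 cells stably carrying human CAR and a CYP2B6 luciferase reporter; % is scaled to controls: 0 for no effect and ±100 for the full control effect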
Details: HepG2 hCAR CYP2B6-luciferase, agonist mode, 24 h; series mostly up to 92.4 µM
From the text: National Center for Advancing Translational Sciences [NCATS] NIH Chemical Genomics Center [NCGC] U.S. Environmental Protection Agency [EPA] National Institutes of Environmental Health Sciences [NIEHS] National Toxicology Program [NTP] […] Assay Protocol Summary: A double-stable (hCAR and CYP2B6-2.2kb) transfected cell line, derived from human hepatoma (HepG2) cells, was utilized for the duration of the quantitative high-throughput screens. […]
Results filed as inconclusive are left out. Active and inactive are the calls of the source. Calls follow the shape of the dose curve; as a rule, active = well fitted activation curve with a large enough effect in the repeat runs; inconclusive = weak or mixed curves; inactive = no such curve, though single readings can be large or run the other way.
Valid outcomes are listed here; reply with one: T = active, F = inactive

>  <Molecule>
O=[N+]([O-])c1ccc(/C=C/c2ccc([N+](=O)[O-])cc2S(=O)(=O)O)c(S(=O)(=O)O)c1

>  <System name>
Nuclear receptor subfamily 1 group I member 3 (Homo sapiens)

>  <Assigned category>
F

$$$$
>  <Molecule>
CC1=C(C)S(=O)(=O)CCS1(=O)=O

>  <System name>
Nuclear receptor subfamily 1 group I member 3 (Homo sapiens)

>  <Assigned category>
T

$$$$
>  <Molecule>
O=C(O)CC(C(=O)O)C(CC(=O)O)C(=O)O (stereo unspecified)

>  <System name>
Nuclear receptor subfamily 1 group I member 3 (Homo sapiens)

>  <Assigned category>
F

$$$$
>  <Molecule>
CC(=O)CC(=O)Nc1ccccc1C

>  <System name>
Nuclear receptor subfamily 1 group I member 3 (Homo sapiens)

>  <Assigned category>
F

$$$$
>  <Molecule>
c1ccc2c(c1)ccc1ccccc12

>  <System name>
Nuclear receptor subfamily 1 group I member 3 (Homo sapiens)

>  <Assigned category>
F

$$$$

Then there is this molecule:
INPUT: Outcome? CCCCCCCCC/C=C/CC1CC(=O)OC1=O (stereo unspecified)
OUTPUT: F

====

test: qHTS assay to identify aromatase inhibitors - cell viability counter screen (AID 743084); conditions: MCF-7 aro ERE viability, CellTiter-Fluor, 24 h; series mostly up to 70.3 µM;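 also: cells stimulated with testosterone during compound exposure; nearly all actives have a fitted effect of over 55% in size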
Results filed as inconclusive are left out. Active and inactive are the calls of the source. Calls follow the shape of the dose curve; as a rule, active = well fitted cell-killing curve with a large enough effect in the repeat runs; inconclusive = weak or mixed curves, or effect the other way; inactive = no such curve, though single readings can be large or run the other way.
Outcome (select one): active, inactive

>  <Molecule>
COS(C)(=O)=O

>  <Assigned category>
inactive

$$$$
>  <Molecule>
CCN(CC)c1ccc(C(=O)c2ccccc2C(=O)O)c(O)c1

>  <Assigned category>
inactive

$$$$
>  <Molecule>
C[C@H]1C[C@H]2[C@@H]3CCC4=CC(=O)C=C[C@]4(C)[C@@]3(F)[C@@H](O)C[C@]2(C)[C@@]1(O)C(=O)CO

>  <Assigned category>
inactive

$$$$
>  <Molecule>
COc1ccc(NC(C)=O)cc1N

>  <Assigned category>
inactive

$$$$
>  <Molecule>
O=C=NCCCCCCN=C=O

>  <Assigned category>
inactive

$$$$
>  <Molecule>
O=C(O)c1cc(=O)c2c(OCC(O)COc3cccc4oc(C(=O)O)cc(=O)c34)cccc2o1

>  <Assigned category>
inactive

$$$$
>  <Molecule>
CCCCN(CCCC)CCCC

>  <Assigned category>
inactive

$$$$
>  <Molecule>
Nc1cc([N+](=O)[O-])ccc1O

>  <Assigned category>
active

$$$$

INPUT: // outcome(item) with item = CCN(CC)CCCC(C)Nc1ccnc2cc(Cl)ccc12 (centres undefined)
OUTPUT: inactive

INPUT: Test call for this molecule, please: CCCCCC(N)=O
OUTPUT: inactive

====

target: Nuclear receptor subfamily 1 group I member 2 (Homo sapiens) (UniProt O75469); test: Human pregnane X receptor (PXR) small molecule agonists, qHTS assay (AID 1346982); conditions: PXR-Luc HepG2, CYP3A4 luciferase reporter, 24 h; series mostly up to 92.4 µM; also: nearly all actives have a fitted effect of over 35% in size; as to activation: % is scaled to controls: 0 for no effect and ±100 for the full control effect
Sequence (O75469 whole entry, looked up): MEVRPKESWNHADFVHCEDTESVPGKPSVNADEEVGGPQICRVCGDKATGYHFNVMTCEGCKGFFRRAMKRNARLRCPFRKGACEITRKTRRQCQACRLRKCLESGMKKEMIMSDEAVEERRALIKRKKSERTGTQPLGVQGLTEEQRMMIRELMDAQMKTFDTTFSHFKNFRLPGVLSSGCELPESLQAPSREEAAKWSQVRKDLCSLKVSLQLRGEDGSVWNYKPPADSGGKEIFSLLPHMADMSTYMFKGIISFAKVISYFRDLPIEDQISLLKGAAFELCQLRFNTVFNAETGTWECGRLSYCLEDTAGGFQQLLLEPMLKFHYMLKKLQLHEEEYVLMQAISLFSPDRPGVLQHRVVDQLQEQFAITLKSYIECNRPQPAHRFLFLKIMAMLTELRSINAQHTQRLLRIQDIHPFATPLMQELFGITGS
Records with an inconclusive call do not appear. Activity calls are given as the source filed them. Calls come from the whole dose curve; as a rule, active = well fitted activation curve with a large enough effect in the repeat runs; inconclusive = weak or mixed curves; inactive = no such curve, though single readings can be large or run the other way.
Lab note: assign the record to one of true (1) (active), false (0) (inactive)

Completed entries (count: 8):
>  <Compound>
CC(C)c1ccc(S(=O)(=O)O)cc1

>  <Assigned category>
false (0)

$$$$
>  <Compound>
O=C(O)CCCC[C@@H]1SC[C@@H]2NC(=O)N[C@@H]21

>  <Assigned category>
false (0)

$$$$
>  <Compound>
O=C1CCC(N2C(=O)c3ccccc3C2=O)C(=O)N1 (stereo unspecified)

>  <Assigned category>
false (0)

$$$$
>  <Compound>
OCC(CO)(CBr)CBr

>  <Assigned category>
false (0)

$$$$
>  <Compound>
c1c[nH]cn1

>  <Assigned category>
false (0)

$$$$
>  <Compound>
CN(C)CCCN

>  <Assigned category>
false (0)

$$$$
>  <Compound>
CCCCC(CC)CO (stereo unspecified)

>  <Assigned category>
false (0)

$$$$
>  <Compound>
O=C(Oc1ccccc1)c1ccccc1

>  <Assigned category>
false (0)

$$$$

INPUT: Recorded test call requested for Cc1occc(=O)c1O
OUTPUT: false (0)

INPUT: Please let me know the test result on file for O=C(CC(C(=O)OC1CCCCC1)S(=O)(=O)O)OC1CCCCC1 (stereo unspecified) .
OUTPUT: true (1)

INPUT: How did this test come out for CCCCCCCCCCCCc1ccccc1 ?
OUTPUT: false (0)

INPUT: Test call for this compound, please: CCCCCCOCCO
OUTPUT: false (0)

====

experiment: qHTS assay for identifying genotoxic compounds that show differential cytotoxicity against isogenic chicken DT40 cell lines with known DNA damage response pathways - Rev3 mutant cell line (AID 743014); conditions: chicken DT40 Rev3-/- viability, CellTiter-Glo, 40 h; series mostly up to 68.4 µM; also: nearly all actives have a fitted effect of over 55% in size
Results filed as inconclusive are left out. Activity calls are given as the source filed them. Calls come from the whole dose curve; as a rule, active = well fitted cell-killing curve with a large enough effect in the repeat runs; inconclusive = weak or mixed curves, or effect the other way; inactive = no such curve, though single readings can be large or run the other way.
Pick one and only one: Yes (active), No (inactive)

>  <Molecule>
CCCCCCCCCCCCCCCO

>  <Assigned category>
No

$$$$

INPUT: For CCC(O)OC(O)CC (configuration not stated) , which call appears in the assay record?
OUTPUT: No

INPUT: Per the assay record, what outcome was assigned to O=c1[nH]c(=O)n([C@H]2CCCO2)cc1F ?
OUTPUT: No

INPUT: Dear colleague, could you share the recorded outcome for CC(O)COCC(C)O (configuration not stated) when you have a moment?
OUTPUT: No

INPUT: Write down the call the test reported for this molecule. Item: CCCCCCCCCC
OUTPUT: No

INPUT: Returns: the outcome recorded for CC1=CCC2CC1C2(C)C (configuration not stated) in this assay.
OUTPUT: No

INPUT: State the result this test recorded for OC[C@H]1O[C@@](CO)(O[C@H]2O[C@H](CO)[C@@H](O)[C@H](O)[C@H]2O)[C@@H](O)[C@@H]1O .
OUTPUT: No

INPUT: Recorded test outcome, item CCCCCCCCCCCCc1ccccc1
OUTPUT: No

INPUT: GET /call?item= ON=C1CCCCC1 returns the recorded outcome of this test.
OUTPUT: No

INPUT: Could you please tell me the result logged for C=C(C)C(=O)O[C@H]1C[C@@H]2CC[C@@]1(C)C2(C)C in this assay?
OUTPUT: No

INPUT: Identify the outcome logged in this assay for the molecule shown: CCOC(=O)NNc1nncc2ccccc12
OUTPUT: No

INPUT: Dear colleague, could you share the recorded outcome for Cc1cccc(O)c1 when you have a moment?
OUTPUT: No

INPUT: What did the test return for c1ccc2scnc2c1 ?
OUTPUT: No

INPUT: Hi, sorry to bother you, what did the test record for COc1ccc(Cl)cc1C(=O)NCCc1ccc(S(=O)(=O)NC(=O)NC2CCCCC2)cc1 ?
OUTPUT: No

INPUT: What was the test verdict on OCCOCCOCCO ?
OUTPUT: No

INPUT: I'd appreciate the recorded outcome for CC(=O)c1ccccc1 from this test.
OUTPUT: No

INPUT: What call does the record list for C[C@H]1C[C@H]2[C@@H]3CCC4=CC(=O)C=C[C@]4(C)[C@@]3(F)[C@@H](O)C[C@]2(C)[C@@]1(O)C(=O)CO ?
OUTPUT: Yes

INPUT: Entry CCCCCC1=CCCC1=O : call = ?
OUTPUT: No

INPUT: Recorded call for Cc1ccc(S(N)(=O)=O)cc1 ?
OUTPUT: No

INPUT: Which result was noted for this molecule in the test: c1ccc2c(c1)ccc1ccccc12
OUTPUT: Yes

INPUT: Give the logged outcome of this assay for the following molecule: N[C@@H](Cc1cc(I)c(Oc2cc(I)c(O)c(I)c2)c(I)c1)C(=O)O
OUTPUT: No

====

assay: qHTS assay for small molecule disruptors of the mitochondrial membrane potential (AID 720635); conditions: HepG2 mitochondrial membrane potential, Mito-MPS dye ratio; series mostly up to 83.2 µM
Inconclusive results are not listed. The source made the active and inactive calls. Calls come from the whole dose curve; as a rule, active = well fitted inhibition curve with a large enough effect in the signal ratio in the repeat runs; inconclusive = weak or mixed curves, or effect the other way; inactive = flat fitted curve, though single readings scatter; the % refers to the signal ratio.
Outcome field: choose from active, inactive

Example entries and their recorded answers appear below.
>  <Compound>
O=C(O)c1ccc2c(c1)C(=O)OC2=O

>  <Assigned category>
inactive

$$$$
>  <Compound>
c1ccc2scnc2c1

>  <Assigned category>
inactive

$$$$

INPUT: Short answer needed: outcome of this test for CC(=O)CC(=O)Nc1ccccc1 ?
OUTPUT: inactive

INPUT: Called result for CC1CCC(C(C)C)C(O)C1 (configuration not stated)
OUTPUT: inactive

INPUT: Hello, I am checking results. What call was entered for c1ccc(OCCOc2ccccc2)cc1 ?
OUTPUT: active

INPUT: What was the test verdict on Cc1ccc(N(C)C)cc1 ?
OUTPUT: inactive

INPUT: So what was the verdict on C[Si](O[Si](C)(C)C)O[Si](C)(C)C in this test?
OUTPUT: inactive

INPUT: Could you check what this test reported for CCC(O)OCCCOC (configuration not stated) ?
OUTPUT: inactive

INPUT: Returns: the outcome recorded for CCCCCCCCCCCCCCO in this assay.
OUTPUT: active

INPUT: What call does the record list for O=C(O)CCCC[C@@H]1SC[C@@H]2NC(=O)N[C@@H]21 ?
OUTPUT: inactive

INPUT: I would be grateful if you could indicate the recorded call for Nc1ccccc1[N+](=O)[O-] .
OUTPUT: active

INPUT: What did the test return for CCCCCCCCCCCCc1ccccc1 ?
OUTPUT: inactive
